- Assay method text: qHTS assay to identify small molecule antagonists of the vitamin D receptor (VDR) signaling pathway - cell viability counter screen (AID 743225); also: nearly all actives have a fitted effect of over 50% in size
- Test parameters: VDR-bla HEK293T viability, CellTiter-Glo luminescence, 16 h; series mostly up to 61 µM
Records with an inconclusive call do not appear. Calls of active or inactive are those of the source. Calls follow the shape of the dose curve; as a rule, active = well fitted cell-killing curve with a large enough effect in the repeat runs; inconclusive = weak or mixed curves, or effect the other way; inactive = no such curve, though single readings can be large or run the other way.
Classes used: active, inactive

Compound | Label class
O=C(/C=C/c1ccccc1)OC/C=C/c1ccccc1 | inactive
Cc1cc(C(C#N)c2ccc(Cl)cc2)c(Cl)cc1NC(=O)c1cc(I)cc(I)c1O (centres undefined) | inactive
CCCC(=O)OCCc1ccccc1 | inactive
CC(C)NC[C@@H](O)COc1ccc(CC(N)=O)cc1 | inactive
CCCCCCCCCCCCOCCOCCOCCOCCOCCOCCOCCOCCOCCO | active
C=Cc1ccccc1C=C | inactive
CC1=Nc2ccccc2C1(C)C | inactive
Clc1ccnc(Cl)n1 | inactive
C#Cc1ccc(-c2ccccc2F)cc1 | inactive
